test_system: PI3K (Homo sapiens)
Construct: PI3 Kinase α IC50; other: PI3 Kinase α; other: PI3 Kinase α isoform, fluorescence polarization
assay_details: Fluorescence polarization assay for PI3K
Assay type: biochemical
condition_parameters: PI3 Kinase α; read-out: PI3 Kinase α IC50
measurement_type: IC50 (nM)

Example entries begin here.
// query Give PI3K (Homo sapiens) IC50 for CCn1ncc2c(N3CC4CCC(C3)O4)nc(-c3ccc(NC(=O)Nc4ccc(OC)cc4)cc3)nc21
// result 199

// query Give PI3K (Homo sapiens) IC50 for O=C(NCCF)Nc1ccc(-c2nc(N3CC4CCC(C3)O4)c3cnn(C4CCC5(CC4)OCCO5)c3n2)cc1
// result 5130

(P) COC(=O)Nc1ccc(-c2nc(N3CC4CCC(C3)O4)c3cnn(C(C)C)c3n2)cc1
(Q) O=C(Nc1ccc(-c2nc(N3CC4CCC(C3)O4)c3cnn(C4CCC(O)CC4)c3n2)cc1)OCCO (stereo not shown)
(R) CCn1ncc2c(N3CC4CCC(C3)O4)nc(-c3ccc(NC(=O)NCCN)cc3)nc21
// query Please put the entries in order of rising IC50. Rank them, then answer with their labels in that order.
// result R, P, Q
(R: 270 nM, P: 1040 nM, Q: 3960 nM)

---

test_system: PI3K (Homo sapiens, UniProt P48736)
Construct: PI3 Kinase γ IC50; other: PI3 Kinase γ; other: PI3 Kinase γ isoform, fluorescence polarization
Sequence (P48736 whole entry, canonical isoform): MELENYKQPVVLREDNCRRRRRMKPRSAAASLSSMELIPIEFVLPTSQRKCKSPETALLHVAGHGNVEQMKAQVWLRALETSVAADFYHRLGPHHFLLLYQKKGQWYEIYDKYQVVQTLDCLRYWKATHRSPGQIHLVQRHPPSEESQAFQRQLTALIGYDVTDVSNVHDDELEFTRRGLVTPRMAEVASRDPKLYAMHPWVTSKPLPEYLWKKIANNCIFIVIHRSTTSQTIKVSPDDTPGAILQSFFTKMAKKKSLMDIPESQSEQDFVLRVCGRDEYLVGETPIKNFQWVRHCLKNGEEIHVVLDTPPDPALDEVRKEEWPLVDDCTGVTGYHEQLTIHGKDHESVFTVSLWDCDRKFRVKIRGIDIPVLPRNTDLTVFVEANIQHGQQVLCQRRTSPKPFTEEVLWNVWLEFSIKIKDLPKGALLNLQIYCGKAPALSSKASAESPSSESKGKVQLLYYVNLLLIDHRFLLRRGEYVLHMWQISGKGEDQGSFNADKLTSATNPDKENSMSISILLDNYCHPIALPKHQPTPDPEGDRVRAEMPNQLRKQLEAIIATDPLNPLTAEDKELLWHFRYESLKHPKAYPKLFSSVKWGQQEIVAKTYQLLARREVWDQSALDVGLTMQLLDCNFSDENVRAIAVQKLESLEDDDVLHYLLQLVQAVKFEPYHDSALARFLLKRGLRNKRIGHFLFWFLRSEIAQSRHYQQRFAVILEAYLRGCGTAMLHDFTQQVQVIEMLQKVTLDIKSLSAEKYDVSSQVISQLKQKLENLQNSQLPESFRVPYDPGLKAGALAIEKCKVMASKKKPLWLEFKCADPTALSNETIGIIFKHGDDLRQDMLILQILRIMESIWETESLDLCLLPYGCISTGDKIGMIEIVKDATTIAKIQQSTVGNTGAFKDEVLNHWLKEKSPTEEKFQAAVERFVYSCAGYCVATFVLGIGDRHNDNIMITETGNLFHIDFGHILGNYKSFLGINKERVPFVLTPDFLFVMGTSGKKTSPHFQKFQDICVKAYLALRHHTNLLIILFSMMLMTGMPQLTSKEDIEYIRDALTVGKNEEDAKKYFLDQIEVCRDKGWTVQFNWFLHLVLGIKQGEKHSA
assay_details: Fluorescence polarization assay for PI3K
Assay type: biochemical
condition_parameters: PI3 Kinase γ isoform, fluorescence polarization; read-out: PI3 Kinase γ IC50
pIC50: −log10 of the molar value.
measurement_type: pIC50

(I) COC1CCC(n2ncc3c(N4CC5CCC(C4)O5)nc(-c4ccc(NC(=O)Nc5ccc(C(=O)NN6CCCC6)cc5)cc4)nc32)CC1 (stereo not shown) [Example 307]
(II) CCNC(=O)Nc1ccc(-c2nc(N3CC4CCC(C3)O4)c3sc(CN4CCN(S(C)(=O)=O)CC4)cc3n2)cc1 [Example 430]
(III) CN1CCN(C2CCC(n3ncc4c(N5CC6CCC(C5)O6)nc(-c5ccc(NC(=O)NCCF)cc5)nc43)CC2)CC1 (stereo not shown) [Example 371]
// query I'd appreciate it if you sorted the entries above by their pIC50, lowest to highest. Rank them, then answer with their labels in that order.
// result III, I, II
(III: 5.05, I: 5.30, II: 5.79)

---

test_system: PI3K (Homo sapiens, UniProt P48736)
Construct: PI3 Kinase γ IC50; other: PI3 Kinase γ; other: PI3 Kinase γ isoform, fluorescence polarization
assay_details: Fluorescence polarization assay for PI3K
Assay type: biochemical
condition_parameters: PI3 Kinase γ isoform, fluorescence polarization; read-out: PI3 Kinase γ IC50
pIC50: −log10 of the molar value.
measurement_type: pIC50

// query Dear colleague, I am looking for the recorded pIC50 of the following compound: COC(=O)N1CCC(n2ncc3c(N4C5CCC4COC5)nc(-c4ccc(NC(=O)Nc5ccc(N6CCN(C)CC6)nc5)cc4)nc32)CC1
// result 5.34

(A) CO[C@H]1CC[C@H](n2ncc3c(N4CC5CCC(C4)O5)nc(-c4ccc(NC(=O)NC5CC5)cc4)nc32)CC1 (relative stereo)
(B) O=C(Nc1ccccc1)Nc1ccc(-c2nc(N3CC4CCC(C3)O4)c3sccc3n2)cc1
// query A or B : whose pIC50 is greater? // output: label of the selected item
// result B
